Listing of recorded fraction unbound at 5 µM by entry.
Assay: Protein binding in rat plasma at 5 uM
Assay type: ADME, cell-free
Conditions: read-out: PPB (converted)
A bare number is all that is needed in reply.

Consider the reported fraction unbound at 5 µM for these molecules:
[[record]]
molecule = "CCCn1c(Oc2cccnc2C)nc2nc(C3CCCC3)[nH]c2c1=O"
measured_result = 0.23

[[record]]
molecule = "CCCn1c(Oc2ccc(F)c(F)c2)nc2nc(C3CCCC3)[nH]c2c1=O"
measured_result = 0.01

[[record]]
molecule = "CCCn1c(OC2CCC(O)C2)nc2nc(C3CCCC3)[nH]c2c1=O (centres undefined)"
measured_result = 0.2


// moving on: another record for fraction unbound at 5 µM
Qu. Param item = CCCn1c(-c2cccc(OC)c2)nc2nc(C3CCCC3)[nH]c2c1=O ; retrieve measured fraction unbound at 5 µM.
Ans. 0.05
